Reported inhibition at 1 µM by item:
# ASSAYED TARGET: human Nav1.6 (hNav1.6) (Homo sapiens, UniProt Q9UQD0)
# Construct: expressed in transfected cells; host or cells: HEK-293 (G418 selection)
# Sequence (Q9UQD0 whole entry): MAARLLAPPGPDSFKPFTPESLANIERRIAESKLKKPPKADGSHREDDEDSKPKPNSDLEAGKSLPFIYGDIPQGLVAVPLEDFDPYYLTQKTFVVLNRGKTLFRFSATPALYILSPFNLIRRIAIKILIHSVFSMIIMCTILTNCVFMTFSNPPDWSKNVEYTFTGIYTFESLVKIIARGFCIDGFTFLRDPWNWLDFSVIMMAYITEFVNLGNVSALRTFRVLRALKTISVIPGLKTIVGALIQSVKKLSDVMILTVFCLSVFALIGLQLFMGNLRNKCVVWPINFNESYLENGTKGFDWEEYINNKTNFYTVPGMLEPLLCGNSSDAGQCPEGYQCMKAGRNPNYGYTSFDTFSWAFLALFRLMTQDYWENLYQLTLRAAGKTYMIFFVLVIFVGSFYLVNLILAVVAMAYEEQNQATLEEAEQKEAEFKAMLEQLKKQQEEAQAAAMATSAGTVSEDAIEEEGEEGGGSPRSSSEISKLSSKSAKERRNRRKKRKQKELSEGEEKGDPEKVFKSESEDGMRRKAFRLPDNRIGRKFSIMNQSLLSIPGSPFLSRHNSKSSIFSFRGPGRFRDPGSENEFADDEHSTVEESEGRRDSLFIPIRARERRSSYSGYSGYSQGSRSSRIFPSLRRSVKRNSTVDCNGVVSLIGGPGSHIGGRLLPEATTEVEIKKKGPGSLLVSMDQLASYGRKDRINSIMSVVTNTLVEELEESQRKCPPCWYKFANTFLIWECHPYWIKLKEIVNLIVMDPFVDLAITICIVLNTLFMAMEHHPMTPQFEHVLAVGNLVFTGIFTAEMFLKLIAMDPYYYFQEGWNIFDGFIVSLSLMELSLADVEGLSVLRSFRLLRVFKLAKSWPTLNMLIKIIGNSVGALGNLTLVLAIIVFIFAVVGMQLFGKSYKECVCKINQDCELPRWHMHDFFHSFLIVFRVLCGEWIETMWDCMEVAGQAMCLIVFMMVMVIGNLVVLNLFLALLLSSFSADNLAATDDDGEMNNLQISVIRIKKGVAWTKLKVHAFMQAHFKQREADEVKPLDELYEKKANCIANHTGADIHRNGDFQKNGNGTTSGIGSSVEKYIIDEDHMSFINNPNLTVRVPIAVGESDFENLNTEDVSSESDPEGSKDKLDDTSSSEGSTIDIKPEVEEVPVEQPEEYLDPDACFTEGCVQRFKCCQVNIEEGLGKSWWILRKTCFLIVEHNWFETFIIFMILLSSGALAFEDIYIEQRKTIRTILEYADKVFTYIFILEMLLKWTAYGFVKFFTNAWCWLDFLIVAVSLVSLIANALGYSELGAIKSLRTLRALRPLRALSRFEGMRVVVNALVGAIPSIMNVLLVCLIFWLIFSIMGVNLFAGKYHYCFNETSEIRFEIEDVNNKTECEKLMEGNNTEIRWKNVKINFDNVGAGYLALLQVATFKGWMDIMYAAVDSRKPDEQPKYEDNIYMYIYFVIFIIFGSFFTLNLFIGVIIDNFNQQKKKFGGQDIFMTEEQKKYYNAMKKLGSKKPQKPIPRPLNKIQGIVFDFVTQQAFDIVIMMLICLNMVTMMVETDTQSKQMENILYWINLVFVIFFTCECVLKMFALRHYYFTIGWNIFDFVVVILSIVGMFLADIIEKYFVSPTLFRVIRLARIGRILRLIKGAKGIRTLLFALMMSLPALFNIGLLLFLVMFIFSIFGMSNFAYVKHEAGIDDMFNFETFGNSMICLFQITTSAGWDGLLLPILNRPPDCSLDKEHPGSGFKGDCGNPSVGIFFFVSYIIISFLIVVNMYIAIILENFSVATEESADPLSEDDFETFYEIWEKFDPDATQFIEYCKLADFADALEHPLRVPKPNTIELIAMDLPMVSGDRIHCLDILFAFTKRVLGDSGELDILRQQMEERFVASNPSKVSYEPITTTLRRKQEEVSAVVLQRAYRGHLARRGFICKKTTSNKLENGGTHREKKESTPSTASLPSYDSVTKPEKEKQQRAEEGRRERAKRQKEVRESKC
# EXPERIMENT DESCRIPTION: Modulation of late sodium current (INaL), PatchXpress electrophysiology, ATX-II evoked
# Type: cell-based
# EXPERIMENTAL PARAMETERS: HEK293; 1 μM compound; HEK-293 cells expressing recombinant human Nav1.6; late current evoked by 300 nM ATX-II; read-out: INaL v1.6 (1 μM, % Inhibition)

Take a look at these entries with their results.
# SMILES RECORD, ASSAYED TARGET, inhibition at 1 µM
measured = [
    ("[2H]c1nnn2ccc(-c3cnc(O[C@H](C)C(F)(F)F)c(F)c3)cc12", "human Nav1.6 (hNav1.6) (Homo sapiens, UniProt Q9UQD0)", "> 70%"),
    ("[2H]C([2H])([2H])OCc1nnn2ccc(-c3cnc(OC(C)(C)C(F)(F)F)c(F)c3)cc12", "human Nav1.6 (hNav1.6) (Homo sapiens, UniProt Q9UQD0)", "> 70%"),
    ("Cc1nnn2ccc(-c3cnc(O[C@H](C)C(F)(F)F)c(F)c3)cc12", "human Nav1.6 (hNav1.6) (Homo sapiens, UniProt Q9UQD0)", "> 70%"),
]

Result for Cc1cc(OC(F)(F)F)ccc1-c1cc(C)n2nncc2c1 , tested on human Nav1.6 (hNav1.6) (Homo sapiens, UniProt Q9UQD0), inhibition at 1 µM: > 70%

Result for COCc1nnn2ccc(-c3cnc(OC4(C(F)(F)F)CCC4)c(F)c3)cc12 , tested on human Nav1.6 (hNav1.6) (Homo sapiens, UniProt Q9UQD0), inhibition at 1 µM: > 70%

Result for Cc1nnn2ccc(-c3cnc(OCC(F)(F)F)c(F)c3)cc12 , tested on human Nav1.6 (hNav1.6) (Homo sapiens, UniProt Q9UQD0), inhibition at 1 µM: 30 to 70%

Result for Cc1nnn2ccc(-c3cnc(OC(C)(C)C(F)(F)F)c(F)c3)cc12 , tested on human Nav1.6 (hNav1.6) (Homo sapiens, UniProt Q9UQD0), inhibition at 1 µM: > 70%
